# Tested on: male Wistar rats
# experimental.parameters: 200 μg/kg i.v.
endpoint.name: Δ HR (beats/min)
Note: unit beats/min is implicit; provide only the numeric part.

Exercise: Fill blank: measured Δ HR of the molecule COc1ccc([C@@H]2[C@@H](C(=O)NCCCCNC(=N)NCC=C(C)C)[C@@H](C(=O)NCCCCNC(=N)NCC=C(C)C)[C@@H]2c2ccc(OC)c(OC)c2)cc1OC is ____.
Key: -13

Exercise: Fill blank: measured Δ HR of the molecule CC(C)=CCNC(=N)NCCCCN is ____.
Key: 0

Exercise: Fill blank: measured Δ HR of the molecule NCCCCN=C(N)N [agmatine, 4-(aminobutyl)guanidine, reference compound] is ____.
Key: 0

Exercise: Fill blank: measured Δ HR of the molecule COc1ccc(C=CC(=O)NCCCCNC(=N)N)cc1OC is ____.
Key: 0

Exercise: Fill blank: measured Δ HR of the molecule CC(C)=CCN=C(N)N [galegine, prenylguanidine, reference compound] is ____.
Key: -94
